Where these numbers come from: patent US4529549A

Assay: Stability of the compounds in aqueous solutions (HPLC residual content)
Type: physicochemical
Details: water
Structures can show the parent of a compound that is named as a salt.

{"compound": "C[C@@H](O)[C@H](NC(=O)CCCCCCNC(=N)N)C(=O)NCCCCNCCCN [Compound 15, trihydrochloride]", "remaining at 48 h (%)": 99.1}
{"compound": "N=C(N)NCCCCCCC(=O)NC(CCO)C(=O)NCCCCNCCCN (racemic) [Compound 18]", "remaining at 48 h (%)": 99.7}
{"compound": "N=C(N)NCCCCCCC(=O)N[C@@H](Cc1cnc[nH]1)C(=O)NCCCCNCCCN [Compound 14, trihydrochloride]", "remaining at 48 h (%)": 99.6}
{"compound": "N=C(N)NCCCC[C@H](O)CC(=O)N[C@@H](CO)C(=O)NCCCCNCCCN [Compound 3, trihydrochloride]", "remaining at 48 h (%)": 100}
{"compound": "N=C(N)NCCCCCCCCC(=O)N[C@@H](CO)C(=O)NCCCCNCCCN [Compound 17, trihydrochloride]", "remaining at 48 h (%)": 99.8}
{"compound": "Cl.Cl.Cl.N=C(N)NCCCCCCC(=O)N[C@@H](CO)C(=O)NCCCCNCCCN [Compound 2, trihydrochloride]", "remaining at 48 h (%)": 99.8}
{"compound": "CC(C)C[C@H](NC(=O)CCCCCCNC(=N)N)C(=O)NCCCCNCCCN [Compound 9, trihydrochloride]", "remaining at 48 h (%)": 99.8}
{"compound": "N=C(N)NCCCCCCC(=O)N[C@@H](Cc1ccccc1)C(=O)NCCCCNCCCN [Compound 13, trihydrochloride]", "remaining at 48 h (%)": 99.9}
{"compound": "N=C(N)NCCCCCCC(=O)N[C@@H](CC(=O)O)C(=O)NCCCCNCCCN [Compound 10, trihydrochloride]", "remaining at 48 h (%)": 99.8}
{"compound": "N=C(N)NCCCCCCC(=O)N[C@H](CO)C(=O)NCCCCNCCCN [Compound 4, trihydrochloride]", "remaining at 48 h (%)": 100}
{"compound": "C[C@H](NC(=O)CCCCCCNC(=N)N)C(=O)NCCCCNCCCN [Compound 5, trihydrochloride]", "remaining at 48 h (%)": 100}
{"compound": "CC(=O)O[C@@H](CCCCNC(=N)N)CC(=O)NCC(=O)NCCCCNCCCN [Compound 16, trihydrochloride]", "remaining at 48 h (%)": 99.6}
{"compound": "N=C(N)NCCCCCCC(=O)NCCCC(=O)NCCCCNCCCN [Compound 7, trihydrochloride]", "remaining at 48 h (%)": 99.8}
{"compound": "N=C(N)NCCCCCCC(=O)N[C@@H](CCCNC(=N)N)C(=O)NCCCCNCCCN [Compound 12, trihydrochloride]", "remaining at 48 h (%)": 99.7}
